- Tested on: MS2 coat protein
- Assay Method Text: apparent KD of MS2 coat protein; designed switch direction (-1 OFF switch, 1 ON switch): -1; higher = weaker reporter binding
- Run Parameters: Eterna round: R95; input ligand: FMN 200 uM
Readout Type: apparent KD of MS2 coat protein

Sequence Text | Assayed Target | Result
AGAAGUAGUAACCGAUCCUACAUGAGGAUCACCCAUGUAGCGAGACGUGCACGCGAAGCUCGUCAGACUACCAGAUG [salish99_TOv1_r3_025] (puzzle: Sensor v3, turn-off variant 1) | MS2 coat protein | 138 nM
UUUAAUUUUUUUUUUUUACAAGCUUUUUGCUCGUCUUAUACAUGAGGAUCACCCAUGUGAGUGGAAGGUAAAUUAUC [JMF 69] (puzzle: Sensor v3, turn-off variant 2) | MS2 coat protein | 12.6 nM
UCAUACGUUGAGGAUAUCUCAGUUAGAAUAUUUAGAGAAGGCGAUACAUGAGGAUCACCCAUGUUUAUGGGCAU [Ex-6 Malc#6] (puzzle: Exclusion 6) | MS2 coat protein | 346 nM
AGUAGGUCUACCUUGGUGGAUCUGCAUUUAUGCAGGUGAACAUGAGGAUCACCCAUGUCCUCAUUUGCUCGUCUUAU [JL turnoff v2 99.28] (puzzle: Sensor v3, turn-off variant 2) | MS2 coat protein | 55.3 nM
CGUACUGAAGUCAGGAUAUUGUCUCGGAUACGAAACAAGAAGGGACAUGAGGAUCACCCAUGUAGACAGUACGA [Malc #30 mod 3] (puzzle: Brourd's mod of Exclusion 4) | MS2 coat protein | 19.3 nM
